The measurements presented in this section are drawn from the array DNA melting data of Ke et al. (doi:10.1101/2024.01.08.574731).

- TEST_DETAILS: folding enthalpy; higher = less favourable; fluorescence melt of hairpins on a sequencing array, two-state fit
- TEST_PARAMETERS: sodium 0.088 M
Answer f if folding enthalpy is under -20 kcal/mol, and t if it is -20 kcal/mol or more.

INPUT: Exam item: decide whether the reported folding enthalpy for GTGACCGAAAGGTGACAC ((((((....)))..))) is at least -20 kcal/mol.
OUTPUT: t

INPUT: Threshold query (folding enthalpy >= -20 kcal/mol) on GAACACGAAAGTGTTTC ((((((....))).)))
OUTPUT: t

INPUT: Does folding enthalpy meet or surpass -20 kcal/mol for GGCGGAGGAAACCCCGCC (((((.(....).))))) ?
OUTPUT: f

INPUT: Would you say GGGTGCCGAAAGGCTCCC (((.(((....))).))) shows folding enthalpy at minimum -20 kcal/mol?
OUTPUT: f

INPUT: Decide: folding enthalpy of GGCGCCGAAAGGCCAGCC ((((((....)))..))) >= -20 kcal/mol?
OUTPUT: f

INPUT: Hi team, for GGACTAGGAAACTAGCCC ((.((((....)))).)) , is the recorded folding enthalpy at or above -20 kcal/mol?
OUTPUT: f

INPUT: For this sequence, is measured folding enthalpy -20 kcal/mol or higher? GTCAGCGAAAGCTGAGAC ((((((....)))..)))
OUTPUT: t

INPUT: Does GTTTGGCGAAAGCCGAAC (((.(((....))).))) have a reported folding enthalpy of at least -20 kcal/mol?
OUTPUT: f

INPUT: Quick check: does GTCTTCCGAAAGGACGAC (((.(((....))).))) have folding enthalpy greater than or equal to -20 kcal/mol?
OUTPUT: f

INPUT: Check the entry GCTTCGCGAAAGCGACGC ((.((((....)))).)) : does folding enthalpy equal or exceed -20 kcal/mol?
OUTPUT: f

INPUT: Assess whether reported folding enthalpy for GCTAACGAAAGTTTCAGC ((((((....)))..))) sits at -20 kcal/mol or higher.
OUTPUT: t

INPUT: Decide: is the reported value of folding enthalpy for GATCGTGTTTACGATC ((((((....)))))) equal to or greater than -20 kcal/mol?
OUTPUT: f

INPUT: Quick check: does GACCAACGAAAGTTCGTC (((.(((....))).))) have folding enthalpy greater than or equal to -20 kcal/mol?
OUTPUT: f

INPUT: Confirm if folding enthalpy reported for the sequence GAACCAGGAAACTGGTTC (((((((....))))))) is -20 kcal/mol or above.
OUTPUT: f

INPUT: Decide: folding enthalpy of GATCACGAAAGTGTTATC ((((((....)))..))) >= -20 kcal/mol?
OUTPUT: t

INPUT: Hello, I need to know if GTTACCGAAAGGTAGAAC ((((((....)))..))) has measured folding enthalpy not below -20 kcal/mol. Thanks!
OUTPUT: t

INPUT: Determine whether measured folding enthalpy meets or exceeds -20 kcal/mol for GCTCGGCGAAAGCAGCGC ((.(.((....)).).))
OUTPUT: t

INPUT: Is it the case that GCTATAGAAATATAGC ((((((....)))))) has folding enthalpy reaching or exceeding -20 kcal/mol?
OUTPUT: f

INPUT: Decide: folding enthalpy of GCGTTGGGAAACCAATGC ((.((((....)))).)) >= -20 kcal/mol?
OUTPUT: f

INPUT: Is the recorded value of folding enthalpy equal to or greater than -20 kcal/mol for this sequence? GATAACCGAAAGGTATC (((.(((....))))))
OUTPUT: t

INPUT: Could you please find out whether GTGTGAGGAAACTCACGC (.(((((....))))).) has folding enthalpy that meets -20 kcal/mol or exceeds it?
OUTPUT: f

INPUT: Answer whether folding enthalpy of GCCATCGAAAGATCAGGC ((((((....)))..))) is greater than or equal to -20 kcal/mol.
OUTPUT: f

INPUT: Could you verify whether the entry GACTACGAAAGTAGCGTC ((((((....)))..))) shows folding enthalpy of no less than -20 kcal/mol?
OUTPUT: t

INPUT: Determine whether measured folding enthalpy meets or exceeds -20 kcal/mol for GGGTCCGGAAACGGGTCC ((..(((....)))..))
OUTPUT: f

INPUT: Entry GCAGCTCGAAAGAGGTGC (((.(((....))).))) : is its folding enthalpy no less than -20 kcal/mol?
OUTPUT: f

INPUT: Is folding enthalpy for GGTCCGGCGAAAGCCACC (((..(((....)))))) at or above -20 kcal/mol?
OUTPUT: t

INPUT: Check this sequence for folding enthalpy at or above -20 kcal/mol: GGCTAACCGAAAGGTGCC (((..(((....))))))
OUTPUT: f

INPUT: Item CGCGCGGAAACGCTGGCG ((((((....)))..))) with folding enthalpy of -20 kcal/mol or above?
OUTPUT: f

INPUT: Could you verify whether the entry GCCCTTCGAAAGAATGGC (((.(((....))).))) shows folding enthalpy of no less than -20 kcal/mol?
OUTPUT: f

INPUT: # check: folding enthalpy of GAACCCGAAAGGGCGTTC ((((((....)))..))) is greater than or equal to -20 kcal/mol
OUTPUT: t

INPUT: Check this sequence for folding enthalpy at or above -20 kcal/mol: GCCTGTGGAAACATGGGC (((..((....))..)))
OUTPUT: f

INPUT: Does folding enthalpy meet or surpass -20 kcal/mol for GGACAGGCGAAAGCCTCC (((..(((....)))))) ?
OUTPUT: t

INPUT: I'd appreciate it if you could say whether GTATAAACGAAAGTTTAC (((..(((....)))))) has folding enthalpy at least equal to -20 kcal/mol.
OUTPUT: t

INPUT: Is folding enthalpy for GTGAGCGAAAGCTAACAC ((((((....)))..))) at or above -20 kcal/mol?
OUTPUT: t

INPUT: Is folding enthalpy for GGATGCGAAAGCACTTCC ((((((....)))..))) at or above -20 kcal/mol?
OUTPUT: t

INPUT: Please indicate if the recorded folding enthalpy for GCGACCGGAAACGACCGC (((..((....))..))) meets or exceeds -20 kcal/mol.
OUTPUT: f
